Molecular target: human Siglec-7 on primary human monocyte-derived dendritic cells (human, UniProt Q9Y286 19-467)
Sequence (Q9Y286 19-467): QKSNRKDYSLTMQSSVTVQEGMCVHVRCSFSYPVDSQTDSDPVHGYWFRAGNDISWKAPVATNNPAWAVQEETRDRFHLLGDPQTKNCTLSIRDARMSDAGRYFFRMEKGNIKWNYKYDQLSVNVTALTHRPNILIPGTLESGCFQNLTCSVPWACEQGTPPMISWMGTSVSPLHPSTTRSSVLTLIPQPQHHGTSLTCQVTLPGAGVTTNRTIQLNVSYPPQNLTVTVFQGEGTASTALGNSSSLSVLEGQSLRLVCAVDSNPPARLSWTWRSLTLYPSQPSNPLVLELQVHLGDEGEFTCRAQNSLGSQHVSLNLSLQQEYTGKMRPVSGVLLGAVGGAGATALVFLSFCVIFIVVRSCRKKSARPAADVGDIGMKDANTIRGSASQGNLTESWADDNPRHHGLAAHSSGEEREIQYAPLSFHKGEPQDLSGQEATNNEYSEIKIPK
Assay: cell-based or functional assay
measurement_label: Maximal downregulation (% Siglec-7 remaining)

Need Maximal downregulation (% Siglec-7 remaining) of S7AB-H8.44 huIgG1 SELF (antibody, V domains shown) VH: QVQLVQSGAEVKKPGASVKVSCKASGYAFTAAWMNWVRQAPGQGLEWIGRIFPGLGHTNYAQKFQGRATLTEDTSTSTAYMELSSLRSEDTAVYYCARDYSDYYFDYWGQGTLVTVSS VL: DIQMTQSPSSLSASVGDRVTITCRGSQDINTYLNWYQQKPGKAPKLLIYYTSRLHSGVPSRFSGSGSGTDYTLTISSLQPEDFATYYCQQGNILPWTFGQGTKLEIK , thanks.
< 0.1%
